target.or.test.system: GABA-A receptor; anion channel
assay.details: Ability to inhibit [3H]-Ro- 15-1788 binding to Gamma-aminobutyric acid A receptor alpha in vitro in rat cortical membranes
Assay type: cell membranes
pKi: −log10 of the molar value.
Use 7 as the dividing line for pKi, with the line itself on the YES side and lower values as NO.

Entry COc1ccc(C)cc1-c1cc(=O)c2cc(C)ccc2o1 : is its pKi no less than 7?
NO

I'd appreciate it if you could say whether CCC(CC)COc1cccc(-c2cc(=O)c3cc(C)ccc3o2)c1 has pKi at least equal to 7.
NO

Threshold query (pKi >= 7) on Cc1ccc2oc(-c3cc(Br)ccc3O)cc(=O)c2c1
YES

Assess whether reported pKi for Cc1ccc2oc(-c3ccc(N)cc3)cc(=O)c2c1 sits at 7 or higher.
NO

Reported pKi at or above 7? COC(=O)c1cc(-c2cc(=O)c3cc(C)ccc3o2)cc([N+](=O)[O-])c1
NO

Please indicate if the recorded pKi for Cc1ccc2oc(-c3ccccc3N)cc(=O)c2c1 meets or exceeds 7.
NO

Would you say CCC(CC)COC(=O)c1cccc(-c2cc(=O)c3cc(C)ccc3o2)c1 shows pKi at minimum 7?
NO

Check the entry Cc1ccc2oc(-c3cccc(Br)c3)cc(=O)c2c1 : does pKi equal or exceed 7?
YES

Does the compound CCc1ccc2oc(-c3ccccc3)cc(=O)c2c1 have recorded pKi that is 7 or more?
NO

Could you verify whether the entry Cc1ccc2oc(-c3ccc(C)c(C)c3)cc(=O)c2c1 shows pKi of no less than 7?
NO

Check this compound for pKi at or above 7: Cc1ccc2oc(-c3cc(CO)cc(CO)c3)cc(=O)c2c1
NO
